assay: Inhibition of farnesyltransferase
measurement type: pIC50

Q) Need pIC50 of N#Cc1ccc(Cn2cncc2COCc2ccc(C#N)cc2-c2cccc3c2OCO3)cc1 , thanks.
A) 9.09

Q) Next record, please: N#Cc1ccc(Cn2cncc2CNC2CCN(C(=O)c3ccc(Cl)cc3)C2=O)cc1 (stereo not drawn)
A) 7.05

Q) Next record, please: Cc1ccccc1-c1cc(C(OCc2ccccc2F)c2cncn2C)ccc1C#N (stereo not drawn)
A) 7.15

Q) Next record, please: N#Cc1ccc(Cn2cncc2CNC2CCN(c3ccccc3Cl)C2=O)cc1 (stereo not drawn)
A) 8.82

Q) Next record, please: N#Cc1ccc(Cn2cncc2CNC2CCN(C(=O)c3ccccc3Cl)C2=O)cc1 (stereo not drawn)
A) 7.19

Q) Next record, please: Cn1cncc1C(OCc1ccc(C#N)c(N2CCCC(O)C2)n1)c1ccc(C#N)c(-c2ccccc2C(F)(F)F)c1 (stereo not drawn)
A) 8.88

Q) Next record, please: Cc1ccccc1-c1cc(C(OCc2cnc(Cl)c(Cl)c2)c2cncn2C)ccc1C#N (stereo not drawn)
A) 7.82

Q) Next record, please: Cc1ccc(-c2cc(C#N)ccc2COCc2cncn2Cc2ccc(C#N)cc2)cc1C
A) 9.22

Q) Next record, please: N#Cc1ccc(Cn2cncc2COCc2ccc(C#N)cc2-c2cccc(Cl)c2)cc1
A) 9.43

Q) Next record, please: N#Cc1ccc(Cn2cncc2CNC2CCN(C(=O)c3cccnc3)C2=O)cc1 (stereo not drawn)
A) 5.7

Q) Next record, please: Cn1cncc1C(OCc1ccc(C#N)c(N2CCC[C@@H]2C(=O)O)n1)c1ccc(C#N)c(-c2ccccc2C(F)(F)F)c1 (stereo partly drawn)
A) 8.44

Q) Next record, please: N#Cc1ccc(Cn2cncc2CCN[C@@H]2CCN(c3ccccc3)C2=O)cc1
A) 6.92

Q) Next record, please: Cc1ccccc1-c1cc(C(OCc2ccc(-c3ccccc3)cc2)c2cncn2C)ccc1C#N (stereo not drawn)
A) 7.88

Q) Next record, please: Cc1ccccc1-c1cc(C(OCc2ccccc2C#N)c2cncn2C)ccc1C#N (stereo not drawn)
A) 7.2

Q) Next record, please: N#Cc1ccc(Cn2cncc2CNC2CCN(c3cccc(Cl)c3)C2=O)cc1 (stereo not drawn)
A) 8.08

Q) Next record, please: Cn1cncc1C(OCc1ccc(C#N)c(N2CCC(O)C2)n1)c1ccc(C#N)c(-c2ccccc2C(F)(F)F)c1 (stereo not drawn)
A) 8.45

Q) Next record, please: Cc1ccccc1-c1cc(C(OCc2cc(Cl)nc(Cl)c2)c2cncn2C)ccc1C#N (stereo not drawn)
A) 7.88

Q) Next record, please: CC(=O)NC1CCN(c2nc(COC(c3ccc(C#N)c(-c4ccccc4C(F)(F)F)c3)c3cncn3C)ccc2C#N)C1 (stereo not drawn)
A) 8.76

Q) Next record, please: Cc1ccccc1-c1cc(C(OCc2cccc3ccccc23)c2cncn2C)ccc1C#N (stereo not drawn)
A) 7.76

Q) Next record, please: COc1ccc(COC(c2ccc(C#N)c(-c3ccccc3C)c2)c2cncn2C)cc1 (stereo not drawn)
A) 7.22

Q) Next record, please: Cc1ccccc1-c1cc(C(OCc2ccc(Cl)c(Cl)c2)c2cncn2C)ccc1C#N (stereo not drawn)
A) 7.56

Q) Next record, please: Cn1cncc1C(OCc1ccc(C#N)c(NCc2cccc(F)c2)n1)c1ccc(C#N)c(-c2ccccc2C(F)(F)F)c1 (stereo not drawn)
A) 8

Q) Next record, please: Cc1ccccc1-c1cc(C(OCc2cc(Cl)cc(Cl)c2)c2cncn2C)ccc1C#N (stereo not drawn)
A) 7.72

Q) Next record, please: N#Cc1ccc(Cn2cncc2CNC2CCN(C(=O)c3ccccc3)C2=O)cc1 (stereo not drawn)
A) 6.96

Q) Next record, please: CC(=O)c1ccc(-c2cc(C#N)ccc2COCc2cncn2Cc2ccc(C#N)cc2)cc1
A) 8.88

Q) Next record, please: N#Cc1ccc(COCc2cncn2Cc2ccc(C#N)nc2)c(-c2cccc(Cl)c2)c1
A) 8.52

Q) Next record, please: N#Cc1ccc(Cn2cncc2CN(c2ccccn2)C2CCN(Cc3ccccc3)C2=O)cc1 (stereo not drawn)
A) 7.28

Q) Next record, please: N#Cc1ccc(Cn2cncc2COCc2ccc(C#N)cc2-c2ccc3c(c2)OCO3)nc1
A) 8.32

Q) Next record, please: CCCN(Cc1cncn1Cc1ccc(C#N)cc1)C1CCN(Cc2ccccc2)C1=O (stereo not drawn)
A) 7.23

Q) Next record, please: N#Cc1ccc(Cn2cncc2COCc2ccc(C#N)cc2-c2ccc(C(F)(F)F)cc2)cc1
A) 8.36

Q) Next record, please: N#Cc1ccc(Cn2cncc2COCc2ccc(C#N)cc2-c2cccc(OC(F)(F)F)c2)cc1
A) 9.3

Q) Next record, please: N#Cc1ccc(COCc2cncn2Cc2ccc(Cl)cc2)c(-c2ccc3c(c2)OCO3)c1
A) 8.08

Q) Next record, please: CC(=O)N1CCN(c2nc(COC(c3ccc(C#N)c(-c4ccccc4C(F)(F)F)c3)c3cncn3C)ccc2C#N)CC1 (stereo not drawn)
A) 8.58

Q) Next record, please: N#Cc1ccc(Cn2cncc2CNC2CCN(Cc3ccc(Cl)cc3)C2=O)cc1 (stereo not drawn)
A) 7.6

Q) Next record, please: N#Cc1ccc(Cn2cncc2CN(CCc2ccccc2)C2CCN(Cc3ccccc3)C2=O)cc1 (stereo not drawn)
A) 7.29

Q) Next record, please: Cc1ccc(COC(c2ccc(C#N)c(-c3ccccc3C)c2)c2cncn2C)cc1 (stereo not drawn)
A) 7.26

Q) Next record, please: COc1cccc(-c2cc(C#N)ccc2COCc2cncn2Cc2ccc(Cl)cc2)c1
A) 8.65

Q) Next record, please: COC(=O)c1ccc(COC(c2ccc(C#N)c(-c3ccccc3C(F)(F)F)c2)c2cncn2C)nc1 (stereo not drawn)
A) 8.04
